tested_target: bovine carbonic anhydrase II (Bos taurus, UniProt P00921)
Construct: carbonic anhydrase II (bCAII, ≥3000 W-A units/mg from bovine erythrocytes) from Sigma; purchased Sigma (Taufkirchen, Germany); host or cells: isolated from bovine erythrocytes
Sequence (P00921 whole entry): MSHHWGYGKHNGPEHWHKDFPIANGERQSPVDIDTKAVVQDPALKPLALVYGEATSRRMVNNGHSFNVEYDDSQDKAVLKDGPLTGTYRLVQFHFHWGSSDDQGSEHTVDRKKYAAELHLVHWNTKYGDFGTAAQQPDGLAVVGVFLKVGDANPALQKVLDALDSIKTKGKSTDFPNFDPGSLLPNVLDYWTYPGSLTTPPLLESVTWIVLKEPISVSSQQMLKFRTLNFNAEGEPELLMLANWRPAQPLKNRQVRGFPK
assay_remarks: Enzymatic assay of bCA II inhibition, absorbance at 415 nm;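 further: enzyme is carbonic anhydrase II isolated from bovine erythrocytes, with its activity followed photometrically at 415 nm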
Assay type: biochemical
condition_context: bCA II; 1 μM concentration of the inhibitor; triplicate with three technical replicas

- compound: "CC(C)c1ccc(S(=O)(=O)NCCCCCCOS(N)(=O)=O)cc1 [37b]"
  unit_of_measure: "%"
  inhibition at 1 µM: 45.9
- compound: "NS(=O)(=O)OCCCCCCCCCCNS(=O)(=O)c1ccc(C2CCCCC2)cc1 [76b]"
  unit_of_measure: "%"
  inhibition at 1 µM: 19.7
- compound: "NS(=O)(=O)OCCCCNS(=O)(=O)c1ccccc1 [3b, 4-(Phenylsulfonamido]butyl Sulfamate]"
  unit_of_measure: "%"
  inhibition at 1 µM: 32.2
- compound: "CC(C)c1ccc(S(=O)(=O)NCCCCCCCOS(N)(=O)=O)cc1 [38b]"
  unit_of_measure: "%"
  inhibition at 1 µM: 30.3
- compound: "CC(C)c1cccc(S(=O)(=O)NCCCCOS(N)(=O)=O)c1 [42b]"
  unit_of_measure: "%"
  inhibition at 1 µM: 35.3
